Target: DNA topoisomerase II (Homo sapiens, UniProt P11388+Q02880)
Test: Inhibitory activity against HeLa cell Topoisomerase II
Assay type: cell-based
assayMetric: EC50 (µM)

| compoundStructure | assayMetric | unitLabel | measured |
| --- | --- | --- | --- |
| Cc1cc(-c2c(F)cc3c(=O)c(Cc4ccccc4C(=O)O)cn(C4CC4)c3c2F)cc(C)n1 | EC50 | µM | 200 |

(a) Cc1cc(-c2c(F)cc3c(=O)c(Cc4cc(O)ccc4O)cn(C4CC4)c3c2F)cc(C)n1
(b) Cc1cc(-c2c(F)cc3c(=O)c(Cc4cccc(O)c4)cn(C4CC4)c3c2F)cc(C)n1
(c) Cc1cc(-c2c(F)cc3c(=O)c(Cc4ccccc4N)cn(C4CC4)c3c2F)cc(C)n1
(d) COc1cccc(Cc2cn(C3CC3)c3c(F)c(-c4cc(C)nc(C)c4)c(F)cc3c2=O)c1
**Q:** # desc sort on EC50 across 4 compounds Lab note: record answer as labels in requested order.
**A:** d, c, b, a
(d: 14 µM, c: 2.1 µM, b: 1.1 µM, a: 0.16 µM)

(I) COc1ccc(Cc2cn(C3CC3)c3c(F)c(-c4cc(C)nc(C)c4)c(F)cc3c2=O)cc1
(II) Cc1cc(-c2c(F)cc3c(=O)c(Cc4c[nH]cn4)cn(C4CC4)c3c2F)cc(C)n1
**Q:** Please indicate which entry, I or II , has the lower recorded EC50 value. Give the label of your selection.
**A:** II
(II: 1.6 µM, I: 14 µM)

(A) Cc1cc(-c2c(F)cc3c(=O)c(Cc4ccc(N)cc4)cn(C4CC4)c3c2F)cc(C)n1
(B) Cc1cc(-c2c(F)cc3c(=O)c(Cc4ccccc4NC(=O)C(F)(F)F)cn(C4CC4)c3c2F)cc(C)n1
**Q:** Of the two listed items, which has the higher EC50? First: A Second: B Give the label of your selection.
**A:** A
(A: 7.2 µM, B: 4.7 µM)

* * *

Target: DNA topoisomerase II (Homo sapiens, UniProt P11388+Q02880)
Assay: Inhibitory activity against HeLa cell Topoisomerase II
Format: cell-based
assayMetric: EC50 (µM)

Completed entries (count: 3):
| compoundStructure | EC50 / µM |
| --- | --- |
| Cc1cc(-c2c(F)cc3c(=O)c(Cc4ccccn4)cn(C4CC4)c3c2F)cc(C)n1 | 12 |
| Cc1cc(-c2c(F)cc3c(=O)c(Cc4ccc(O)cc4)cn(C4CC4)c3c2F)cc(C)n1 | 1.2 |
| Cc1cc(-c2c(F)cc3c(=O)c(Cc4ccc[nH]4)cn(C4CC4)c3c2F)cc(C)n1 | 5.1 |

(I) COc1ccccc1Cc1cn(C2CC2)c2c(F)c(-c3cc(C)nc(C)c3)c(F)cc2c1=O
(II) Cc1cc(-c2c(F)cc3c(=O)c(Cc4c(O)cc(O)cc4O)cn(C4CC4)c3c2F)cc(C)n1
**Q:** Please indicate which entry, I or II , has the lower recorded EC50 value. Give the label of your selection.
**A:** II

(P) Cc1cc(-c2c(F)cc3c(=O)c(Cc4ccc(Cl)cc4)cn(C4CC4)c3c2F)cc(C)n1
(Q) Cc1cc(-c2c(F)cc3c(=O)c(Cc4cccc(O)c4O)cn(C4CC4)c3c2F)cc(C)n1
**Q:** Of the two listed items, which has the higher EC50? First: P Second: Q Give the label of your selection.
**A:** P
